Origin of values: ChEMBL document CHEMBL1142094

system: Escherichia coli; test: Susceptibility of Escherichia coli K12 MG1655 by agar dilution method; assay type: functional
PROPERTY: MIC (µg/mL)
Report as a plain number; the unit µg/mL is understood.

// solved cases for MIC follow
CN[C@@H]1[C@H](O[C@H]2[C@H](O[C@H]3[C@H](O)[C@@H](O)[C@H](N=C(N)N)[C@@H](O)[C@@H]3N=C(N)N)O[C@@H](C)[C@]2(O)C=O)O[C@@H](CO)[C@H](O)[C@H]1O ... 8
CN[C@@H]1[C@H](O)[C@H](NC)[C@H]2O[C@@]3(O)C(=O)C[C@@H](C)O[C@H]3O[C@@H]2[C@H]1O ... 20
O=C(N[C@H](CO)[C@H](O)c1ccc([N+](=O)[O-])cc1)C(Cl)Cl ... 8
NC[C@H]1O[C@H](O[C@H]2[C@H](O)[C@@H](O[C@H]3O[C@H](CO)[C@@H](O)[C@H](N)[C@H]3O)[C@H](N)C[C@@H]2N)[C@H](O)[C@@H](O)[C@@H]1O ... 6

// lookup MIC for `CN(C)[C@@H]1C(O)=C(C(N)=O)C(=O)[C@@]2(O)C(O)=C3C(=O)c4c(O)cccc4[C@@](C)(O)[C@H]3C[C@@H]12` 4
